# METHOD_NOTES: qHTS RealTime-Glo MT Cell Viability Assay in HepG2 cells - 8 hour (AID 1224873); also: nearly all actives have a fitted effect of over 55% in size
# TEST_SETTINGS: RealTime-Glo luminescence; series mostly up to 76.8 µM
Results filed as inconclusive are left out. Calls of active or inactive are those of the source. Calls follow the shape of the dose curve; as a rule, active = well fitted cell-killing curve with a large enough effect in the repeat runs; inconclusive = weak or mixed curves; inactive = flat fitted curve, though single readings scatter.
ENDPOINT_LABEL: viability change, negative = cytotoxic

Here are 6 compounds together with their reported answers.
Recorded viability change, negative = cytotoxic for "CCCN(CC1CC1)c1c([N+](=O)[O-])cc(C(F)(F)F)cc1[N+](=O)[O-]" , please?
inactive

Recorded viability change, negative = cytotoxic for "CCOP(=O)(OCC)SCCSCC" , please?
inactive

Recorded viability change, negative = cytotoxic for "N#Cc1cc(I)c(O)c(I)c1" , please?
inactive

Recorded viability change, negative = cytotoxic for COc1cc(CC(C)N)cc2c1OCO2 (stereo not drawn) , please?
inactive

Recorded viability change, negative = cytotoxic for "C=C(C#N)CCC#N" , please?
inactive

Recorded viability change, negative = cytotoxic for "O=C(NC(=O)c1c(F)cccc1F)Nc1cc(Cl)c(Oc2ncc(C(F)(F)F)cc2Cl)c(Cl)c1" , please?
inactive

For each of the compounds below, state viability change, negative = cytotoxic.
1. Clc1ccc(C(OCCN2CCCCC2)c2ccccc2)cc1 (stereo not drawn)
2. CCCCNP(N)(N)=S
3. Nc1nc(=S)[nH][nH]1
4. CC1(C)[C@H](C=C(Cl)Cl)[C@@H]1C(=O)O[C@@H](C#N)c1cccc(Oc2ccccc2)c1
5. O=C(Nc1ccccc1)Nc1ccnc(Cl)c1
6. O=C(CBr)Nc1ccc(Cl)cc1C(=O)c1ccccc1F
7. N#CCC#N

1. inactive
2. inactive
3. inactive
4. inactive
5. inactive
6. inactive
7. inactive
